Run description: melting temperature; fluorescence melt of hairpins on a sequencing array, two-state fit, raised by 9.35 °C to match UV melts
Reported conditions: sodium 0.088 M
Endpoint name: Tm (°C)

> print(dat)
                           sequence.input  endpoint.name  assay.result
 1                GCGTTTCACGC ((((...))))             Tm          59.1
 2                GCGGAGCCCGC ((((...))))             Tm          49.4
 3  GCGTGGCGAAAGCGGCGC (((..((....))..)))             Tm          67.7
 4  GATAATGGAAACATTACC (.(((((....))))).)             Tm          22.6
 5  GTCGCTCGAAAGAGAGAC (((.(((....))).)))             Tm          58.4
 6  GCGCGTCGAAAGACACGC (((.(((....))).)))             Tm          62.9
 7      GATCCTGCCCAGGATC ((((((....))))))             Tm            57
 8  GGTCAAGGAAACTTGGCC ((.((((....)))).))             Tm          52.8
 9    GCCGTACGAAAGTAGGC (((.(((....))))))             Tm          67.4
10  GCTGGTGGAAACACCAAC (.(((((....))))).)             Tm          41.3
11    GGAAACCGAAAGGTTCC (((.(((....))))))             Tm          51.9
12  GTTGACCGAAAGGTTAAC (((.(((....))).)))             Tm          53.1
